Target: T1, TNFR1 (Homo sapiens, UniProt P19438)
T1 chain: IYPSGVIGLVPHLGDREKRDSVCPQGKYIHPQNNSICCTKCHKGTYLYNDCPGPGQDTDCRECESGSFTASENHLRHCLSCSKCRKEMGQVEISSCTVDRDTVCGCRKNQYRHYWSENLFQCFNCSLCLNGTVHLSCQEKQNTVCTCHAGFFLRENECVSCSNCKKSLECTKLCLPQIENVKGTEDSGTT
Assay: yeast display SC50
measure: apparent Kd (screen)

INSERT INTO results (binder, experimental_value) VALUES
  ('S51E (designed binder) MTLQELLREEALRRAEAEAFRYALELLAEKFPEQKEYLLDLAEEIESQIRELSGVDVEDVRKFLDKEWAWVKELLAEHPAELAEVEAARAARLAELRAEVEAKVAA', '2.05 nM'),
  ('L24R (designed binder) MTLQELLREEALRRAEAEAFRYARELLAEKFPEQKEYLLDLAEEIESQIRSLSGVDVEDVRKFLDKEWAWVKELLAEHPAELAEVEAARAARLAELRAEVEAKVAA', '7.78 nM'),
  ('E9Q (designed binder) MTLQELLRQEALRRAEAEAFRYALELLAEKFPEQKEYLLDLAEEIESQIRSLSGVDVEDVRKFLDKEWAWVKELLAEHPAELAEVEAARAARLAELRAEVEAKVAA', '0.49 nM'),
  ('A91E (designed binder) MTLQELLREEALRRAEAEAFRYALELLAEKFPEQKEYLLDLAEEIESQIRSLSGVDVEDVRKFLDKEWAWVKELLAEHPAELAEVEAARAERLAELRAEVEAKVAA', '0.593 nM');
